B1: TPR t1 (parent)
chain: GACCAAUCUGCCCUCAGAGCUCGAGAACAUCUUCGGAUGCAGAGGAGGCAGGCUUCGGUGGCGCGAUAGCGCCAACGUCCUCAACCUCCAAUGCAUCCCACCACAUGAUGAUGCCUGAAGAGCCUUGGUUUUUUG

variants of: B1; assay: polymerase ribozyme fitness, log enrichment relative to wild type (log ratio); higher = more active; in vitro selection for triplet polymerase activity
Recorded Metric: polymerase ribozyme fitness (log ratio)
// return a plain number; no unit text

Data request, read-out polymerase ribozyme fitness (log ratio), for U21A C53U C85U
-2.21

Data request, read-out polymerase ribozyme fitness (log ratio), for A5G A6U A46G C123A
0.996

Data request, read-out polymerase ribozyme fitness (log ratio), for C8U A27U C76G U96G
-3.38

Data request, read-out polymerase ribozyme fitness (log ratio), for A6U G120U
-0.0286

Data request, read-out polymerase ribozyme fitness (log ratio), for A29G C56U
-1.17

Next:
Data request, read-out polymerase ribozyme fitness (log ratio), for C3U G45A G48U G60A
-1.92

Data request, read-out polymerase ribozyme fitness (log ratio), for C72G G93C
-1.92

Data request, read-out polymerase ribozyme fitness (log ratio), for C88U C115A
-0.441

Data request, read-out polymerase ribozyme fitness (log ratio), for C8G G44C A84C C115U
-1.3

Data request, read-out polymerase ribozyme fitness (log ratio), for C101U A121G U126A
1.07

Data request, read-out polymerase ribozyme fitness (log ratio), for C22G C101A
-3.82

Data request, read-out polymerase ribozyme fitness (log ratio), for C62G C124U
0.784

Just for reference, the RNAGym collection of RNA variant scans (doi:10.1073/pnas.2313332121) is where these values come from.
